test: qHTS Assay for Lipid Storage Modulators (AID 1519); settings: Drosophila S3 cells, BODIPY lipid droplet/cell ratio, laser cytometry; measured here: cell count channel max response; cells loaded with oleic acid
Records with an inconclusive call do not appear.
Measured max response of individual entries
METRIC_NAME: max response (%)

>>> value_reported("O=c1c(-c2ccc(F)cc2)nc2cnc(Oc3ccccc3)nc2n1C1CC1")
0.149
>>> value_reported("COc1cccc(Cn2c(=O)c(C)nc3cnc(OC)nc32)c1")
15.1
>>> value_reported("O=C(Cc1ccc(Cl)c(Cl)c1)OCCN1CCCC1")
-1.75
>>> value_reported("O=c1c(-c2ccc(F)cc2)nc2cnc(N3CCOCC3)nc2n1Cc1cccs1")
9.38
>>> value_reported("COCCNc1nc(-c2ccccc2Cl)nc2ccccc12")
2.91
>>> value_reported("Cc1cccc(CNc2ccnc(-c3cccnc3)n2)c1")
-7.71
>>> value_reported("CN(C)C(=O)c1ccc(-c2ccc3ncnc(N(C)C)c3c2)cc1")
19.1
>>> value_reported("COc1ccc(NC(=O)N2CCCC3(CCN(C(=O)c4csnn4)CC3)C2)cc1")
11.2
>>> value_reported("COCCn1c(=O)c(-c2cc(F)cc(F)c2)nc2cnc(N3CCOCC3)nc21")
22.1
>>> value_reported("O=C(c1csnn1)N1CCC[C@@]2(CCN(c3ccccn3)C2)C1")
4.63
>>> value_reported("COc1ccc(-n2c(=O)c(-c3cccs3)nc3cnc(OC)nc32)cc1")
12.4

Where do these numbers come from? They come from PubChem BioAssay (NCATS).
